The origin of these recorded values is paper PMC6920875.

IMP-1 (Serratia marcescens, UniProt P52699) data, read-out pIC50
Sequence (P52699 19-246 limits assumed): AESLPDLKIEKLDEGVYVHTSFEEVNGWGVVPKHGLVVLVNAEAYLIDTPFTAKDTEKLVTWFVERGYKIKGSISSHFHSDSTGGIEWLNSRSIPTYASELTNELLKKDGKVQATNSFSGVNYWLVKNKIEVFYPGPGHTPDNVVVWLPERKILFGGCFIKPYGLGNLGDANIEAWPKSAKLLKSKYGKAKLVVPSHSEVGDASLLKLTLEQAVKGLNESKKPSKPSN
pIC50: −log10 of the molar value.
assayMetric: pIC50

{"columns": ["smilesText", "operator", "recordedResult"],
 "data": [
  ["O=C(NNC(=S)[S][K])c1ccc(Cl)cc1", "<", 3.70],
  ["Nc1ccccc1C(=O)NNC(=S)[S][K]", "=", 3.99],
  ["O=C(NNC(=S)[S][K])c1ccc(O)cc1", "<", 3.70],
  ["O=C(CCc1ccccc1)NNC(=S)[S][K]", "=", 4.06],
  ["O=C(NNC(=S)[S][K])c1cccc(Br)c1", "<", 3.70],
  ["O=C(Cc1ccccc1)NNC(=S)[S][K]", "=", 3.78],
  ["CC(C)(C)c1ccc(C(=O)NNC(=S)[S][K])cc1", "=", 4.02]
]}

###

# maps each entry to its pIC50
studySystem: L1 (Stenotrophomonas maltophilia)
Construct: made in house; host or cells: E. coli BL21 (DE3), plasmid pET-26b-L1
Sequence (P52700 34-290): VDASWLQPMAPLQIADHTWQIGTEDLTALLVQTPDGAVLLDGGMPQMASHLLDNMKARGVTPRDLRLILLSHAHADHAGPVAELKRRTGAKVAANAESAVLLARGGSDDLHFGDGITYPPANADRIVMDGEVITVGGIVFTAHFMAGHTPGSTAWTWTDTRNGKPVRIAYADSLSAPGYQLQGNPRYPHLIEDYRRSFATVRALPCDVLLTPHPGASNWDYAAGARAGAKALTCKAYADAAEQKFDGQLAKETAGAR
protocolDetails: biochemical
settings: read-out: IC50 against L1; substrate cefazolin 40 µM, 30 mM Tris pH 7.0, 25 °C, 5 min pre-incubation, inhibitor up to 200 μM
pIC50: −log10 of the molar value.

{"columns": ["compound", "operator", "pIC50"],
 "data": [
  ["CC(C)(C)c1ccc(C(=O)NNC(=S)[S][K])cc1 [DC7]", "=", 3.72],
  ["O=C(CCc1ccccc1)NNC(=S)[S][K] [DC9]", "<", 3.70],
  ["O=C(NNC(=S)[S][K])c1ccc(Cl)cc1 [DC5]", "<", 3.70],
  ["O=C(NNC(=S)[S][K])c1ccccc1 [DC8]", "=", 4.59],
  ["O=C(NNC(=S)[S][K])c1cccc(Br)c1 [DC6]", "=", 3.81],
  ["Nc1ccccc1C(=O)NNC(=S)[S][K] [DC4]", "=", 3.75],
  ["O=C(NNC(=S)[S][K])c1ccc(O)cc1 [DC3]", "<", 3.70],
  ["O=C(Cc1ccccc1)NNC(=S)[S][K] [DC2]", "=", 4.06]
]}

###

Reported pIC50 values for a set of molecules
studySystem: VIM-2 (Escherichia coli, UniProt Q5U7L7)
pIC50: −log10 of the molar value.
assayMetric: pIC50

{"columns": ["smilesText", "recordedResult"],
 "data": [
  ["O=C(NNC(=S)[S][K])c1cccc(Br)c1", "< 3.70"],
  ["O=C(NNC(=S)[S][K])c1ccc(Cl)cc1", "< 3.70"],
  ["O=C(Cc1ccccc1)NNC(=S)[S][K]", "< 3.70"]
]}
